Documented % inhibition at 10 nM across a set of binders
target: human plasma kallikrein (human, UniProt P03952 20-390; P03952 391-638); test: cell-based or functional assay
Sequence (P03952 20-390, chain 1 of 2): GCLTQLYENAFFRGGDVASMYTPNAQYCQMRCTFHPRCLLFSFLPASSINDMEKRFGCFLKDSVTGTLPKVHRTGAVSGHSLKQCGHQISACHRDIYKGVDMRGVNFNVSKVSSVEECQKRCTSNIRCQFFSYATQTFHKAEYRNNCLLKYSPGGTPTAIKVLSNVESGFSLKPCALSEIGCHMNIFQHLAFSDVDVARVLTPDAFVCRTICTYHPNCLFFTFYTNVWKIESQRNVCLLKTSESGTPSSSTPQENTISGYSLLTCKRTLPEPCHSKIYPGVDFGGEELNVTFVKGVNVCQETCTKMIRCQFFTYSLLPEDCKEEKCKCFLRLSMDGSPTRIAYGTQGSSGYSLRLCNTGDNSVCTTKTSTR
Sequence (P03952 391-638, chain 2 of 2): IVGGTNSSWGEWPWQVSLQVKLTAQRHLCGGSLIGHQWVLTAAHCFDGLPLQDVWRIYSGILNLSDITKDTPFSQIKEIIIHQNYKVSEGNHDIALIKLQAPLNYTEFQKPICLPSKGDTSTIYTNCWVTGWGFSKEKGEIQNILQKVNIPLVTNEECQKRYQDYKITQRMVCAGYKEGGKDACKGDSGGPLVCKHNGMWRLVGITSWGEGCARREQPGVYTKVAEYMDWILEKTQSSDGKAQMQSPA
experimental readout: % inhibition at 10 nM (%)

[[record]]
binder = "M198-B12 (Fab, V domains shown) VH: EVQLLESGGGLVQPGGSLRLSCAASGFTFSKYSMAWVRQAPGKGLEWVSGIYPSGGRTLYADSVKGRFTISRDNSKNTLYLQMNSLRAEDTAVYYCAYRRTGIPRRDAFDIWGQGTMVTVSS VL: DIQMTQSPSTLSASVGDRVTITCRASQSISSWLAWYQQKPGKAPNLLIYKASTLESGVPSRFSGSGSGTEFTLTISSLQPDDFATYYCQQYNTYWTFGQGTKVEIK"
uom = "%"
value = 80.7

[[record]]
binder = "M198-C06 (Fab, V domains shown) VH: EVQLLESGGGLVQPGGSLRLSCAASGFTFSQYFMHWVRQAPGKGLEWVSYIYPSGGMTEYADSVKGRFTISRDNSKNTLYLQMNSLRAEDTAVYYCAYRRTGIPRRDAFDIWGQGTMVTVSS VL: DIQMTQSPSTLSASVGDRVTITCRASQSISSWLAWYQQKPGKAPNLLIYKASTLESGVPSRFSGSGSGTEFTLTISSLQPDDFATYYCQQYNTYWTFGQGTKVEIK"
uom = "%"
value = 76.5

[[record]]
binder = "M199-B01 (Fab, V domains shown) VH: EVQLLESGGGLVQPGGSLRLSCAASGFTFSHYIMMWVRQAPGKGLEWVSGIYSSGGITVYADSVKGRFTISRDNSKNTLYLQMNSLRAEDTAVYYCAFRRTGIPRRDAFDNWGQGTMVTVSS VL: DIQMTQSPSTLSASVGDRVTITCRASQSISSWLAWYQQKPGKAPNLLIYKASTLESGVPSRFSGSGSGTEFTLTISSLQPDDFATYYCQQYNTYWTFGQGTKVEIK"
uom = "%"
value = 53.4

